# Vd per entry
- TEST SUMMARY: Volume of distribution at steady state in Sprague-Dawley rat at 5 mg/kg, iv
- Assay type: ADME, organism-based
- CONDITIONS USED: in vivo, read-out: Vdss
A bare number is not enough; add the unit after it.

CCN1CCN(C(C)C(=O)N(C)c2ccc(N/C(=C3\C(=O)Nc4cc(Cl)ccc43)c3ccccc3)cc2)CC1 (racemic); 12.8 L/kg

Input line: Could you tell me which Vd is on file for COC(=O)c1ccc2c(c1)NC(=O)/C2=C(\Nc1ccc(N(C)C(=O)CN2CCN(C)CC2)cc1)c1ccccc1 [NINTEDANIB] ?
Output line: 7.91 L/kg

====

- TEST SUMMARY: Metabolic stability in rat liver microsome assessed as half life measured upto 240 mins by HPLC analysis
- Type: ADME
- CONDITIONS USED: liver microsomes
# half-life per entry
Field format: number, assumed min, no unit text.

COC(=O)c1ccc2c(c1)NC(=O)/C2=C(\Nc1ccc(N(C)C(=O)CN2CCN(C)CC2)cc1)c1ccccc1; 11.7

Input line: Could you tell me which half-life is on file for CCN1CCN(C(C)C(=O)N(C)c2ccc(N/C(=C3\C(=O)Nc4cc(Cl)ccc43)c3ccccc3)cc2)CC1 (racemic) ?
Output line: 31.1

====

- TEST SUMMARY: Half life in Sprague-Dawley rat at 5 mg/kg, iv
- Format: ADME, organism-based
- CONDITIONS USED: in vivo
# half-life per entry
Field format: number, assumed h, no unit text.

COC(=O)c1ccc2c(c1)NC(=O)/C2=C(\Nc1ccc(N(C)C(=O)CN2CCN(C)CC2)cc1)c1ccccc1; 1.76

Please find the next molecule below.
Input line: Could you tell me which half-life is on file for CCN1CCN(C(C)C(=O)N(C)c2ccc(N/C(=C3\C(=O)Nc4cc(Cl)ccc43)c3ccccc3)cc2)CC1 (racemic) ?
Output line: 4.36

====

- TEST SUMMARY: Cytotoxicity against human HUVEC cells assessed as cell viability incubated for 72 hrs by MTT assay
- Assay type: toxicity, cell-based
Field: label. Allowed values: T (IC50 at 72 h < 2000 nM) or F (IC50 at 72 h >= 2000 nM).

Look over these answered cases.
COC(=O)c1ccc2c(c1)NC(=O)/C2=C(\Nc1ccc(N(C)C(=O)C(C)N2CCCN(C)CC2)cc1)c1ccccc1 (racemic); T
CN1CCCN(CC(=O)N(C)c2ccc(N/C(=C3\C(=O)Nc4cc(Cl)ccc43)c3ccccc3)cc2)CC1; F
COC(=O)c1ccc2c(c1)NC(=O)/C2=C(\Nc1ccc(N(C)C(=O)[C@H](C)N2CCN(C)CC2)cc1)c1ccccc1; T
COC(=O)c1ccc2c(c1)NC(=O)/C2=C(\Nc1ccc(N(C)C(=O)CN2CCC(N(C)C)CC2)cc1)c1ccccc1; F
CC(C(=O)N(C)c1ccc(N/C(=C2\C(=O)Nc3cc(Br)ccc32)c2ccccc2)cc1)N(C)CCN(C)C (racemic); T

# evaluate next
Input line: Does COC(=O)c1ccc2c(c1)NC(=O)/C2=C(\Nc1ccc(N(C)C(=O)C(C)N2CCC(N(C)C)CC2)cc1)c1ccccc1 (racemic) have IC50 at 72 h strictly under 2000 nM?
Output line: T

====

- TEST SUMMARY: Cytotoxicity against human HK-2 cells assessed as inhibition of cell growth
- Assay type: toxicity, cell-based
# IC50 per entry

COC(=O)c1ccc2c(c1)NC(=O)/C2=C(\Nc1ccc(N(C)C(=O)CN2CCN(C)CC2)cc1)c1ccccc1; 2.87 µM

Please find the next molecule below.
Input line: Could you tell me which IC50 is on file for CCN1CCN(C(C)C(=O)N(C)c2ccc(N/C(=C3\C(=O)Nc4cc(Cl)ccc43)c3ccccc3)cc2)CC1 (racemic) ?
Output line: 8.35 µM
